Reference source for all entries: patent US11078168B2

Property: IC50; scope: individual compounds
- TESTED SYSTEM: Indoleamine 2,3-dioxygenase (Homo sapiens, UniProt P14902)
- Construct: endogenous in cells
- Sequence (P14902 whole entry): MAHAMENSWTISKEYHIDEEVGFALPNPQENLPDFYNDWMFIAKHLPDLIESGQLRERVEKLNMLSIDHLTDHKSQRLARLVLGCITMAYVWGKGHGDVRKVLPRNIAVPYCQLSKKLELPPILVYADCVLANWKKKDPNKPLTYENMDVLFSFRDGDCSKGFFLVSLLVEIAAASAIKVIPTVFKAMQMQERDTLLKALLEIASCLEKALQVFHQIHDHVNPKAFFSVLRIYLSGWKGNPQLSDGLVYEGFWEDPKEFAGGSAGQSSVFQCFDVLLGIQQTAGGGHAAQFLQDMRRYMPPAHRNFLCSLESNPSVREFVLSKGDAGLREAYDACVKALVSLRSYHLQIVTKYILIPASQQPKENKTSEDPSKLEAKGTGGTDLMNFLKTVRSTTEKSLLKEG
- ASSAY: SKOV-3 cellular Indoleamine 2,3-dioxygenase assay
- CONDITION SET: SKOV-3 cells, 50 ng/ml Interferon gamma, 100 μM L-Tryptophan, 24 hours, N-Formylkynurenin fluorescence detection; read-out: cell based activity
ENDPOINT NAME: IC50

[[record]]
compound = "NS(=O)(=O)N1CC(C(=O)NCCSc2nonc2C(=NO)Nc2ccc(F)c(C(F)F)c2)C1"
reported_result = "< 100 nM"

[[record]]
compound = "O=C(NCCSc1nonc1C(=NO)Nc1ccc(F)c(C(F)F)c1)c1ccc(C(F)(F)F)cc1"
reported_result = "< 100 nM"

[[record]]
compound = "CC(C)(O)CC(=O)NCCSc1nonc1/C(=N/O)Nc1ccc(F)c(C(F)F)c1"
reported_result = "< 100 nM"

[[record]]
compound = "NS(=O)(=O)CC(=O)NCCOc1nonc1C(=NO)Nc1ccc(F)c(C(F)(F)F)c1"
reported_result = "< 100 nM"

[[record]]
compound = "Cc1nnc(C(=O)NCCSc2nonc2C(=NO)Nc2ccc(F)c(Cl)c2)o1"
reported_result = "< 100 nM"

[[record]]
compound = "O=C(NCCSc1nonc1C(=NO)Nc1ccc(F)c(Cl)c1)c1nnc(C(F)(F)F)[nH]1"
reported_result = "100 to 1000 nM"

[[record]]
compound = "CC(CSc1nonc1C(=NO)Nc1ccc(F)c(C(F)F)c1)NC(=O)CC(N)=O (single isomer, unassigned) [Example 115]"
reported_result = "< 100 nM"

[[record]]
compound = "NC(C(=O)NCCOc1nonc1C(=NO)Nc1ccc(F)c(Cl)c1)C(F)(F)F (centres unmarked)"
reported_result = "< 100 nM"

[[record]]
compound = "CS(=O)(=O)Nc1ccc(C(=O)NCCSc2nonc2C(=NO)Nc2ccc(F)c(C(F)F)c2)cc1"
reported_result = "< 100 nM"

[[record]]
compound = "NS(=O)(=O)CC(=O)NCCSc1nonc1/C(=N/O)Nc1cccc(C(F)(F)F)c1"
reported_result = "< 100 nM"

[[record]]
compound = "N#CC1(c2ccc(C(=O)NCCSc3nonc3C(=NO)Nc3ccc(F)c(C(F)F)c3)cc2)CC1"
reported_result = "< 100 nM"

[[record]]
compound = "NS(=O)(=O)c1ccc(C(=O)NCCSc2nonc2C(=NO)Nc2ccc(F)c(Cl)c2)cc1"
reported_result = "< 100 nM"

[[record]]
compound = "Cc1nnc(CCCOc2nonc2C(=NO)Nc2ccc(F)c(Cl)c2)[nH]1"
reported_result = "100 to 1000 nM"

[[record]]
compound = "O=C(NCCSc1nonc1/C(=N/O)Nc1ccc(F)c(C(F)F)c1)C1CS(=O)(=O)C1"
reported_result = "< 100 nM"

[[record]]
compound = "CS(=N)(=O)CC(=O)NCCSc1nonc1C(=NO)Nc1cccc(Cl)c1 (centres unmarked)"
reported_result = "< 100 nM"

[[record]]
compound = "CS(=O)(=O)Nc1ccc(C(=O)NCCSc2nonc2C(=NO)Nc2ccc(F)c(Cl)c2)cn1"
reported_result = "100 to 1000 nM"

[[record]]
compound = "Nc1c(NCCSc2nonc2C(=NO)Nc2ccc(F)c(Cl)c2)c(=O)c1=O"
reported_result = "< 100 nM"


* * *

- TESTED SYSTEM: Indoleamine 2,3-dioxygenase (Homo sapiens)
- Construct: endogenous in cells
- ASSAY: SKOV-3 cellular Indoleamine 2,3-dioxygenase assay
- CONDITION SET: SKOV-3 cells, 50 ng/ml Interferon gamma, 100 μM L-Tryptophan, 24 hours, N-Formylkynurenin fluorescence detection; read-out: cell based activity
ENDPOINT NAME: IC50

[[record]]
compound = "ON=C(Nc1ccc(F)c(Cl)c1)c1nonc1SCc1ccccc1"
endpoint_name = "IC50"
reported_result = "100 to 1000 nM"

[[record]]
compound = "CS(=O)(=O)NCC(=O)NCCSc1nonc1C(=NO)Nc1ccc(F)c(C(F)F)c1"
endpoint_name = "IC50"
reported_result = "< 100 nM"

[[record]]
compound = "O=C(NCCSc1nonc1C(=NO)Nc1ccc(F)c(C(F)F)c1)C(O)CO (stereo not drawn)"
endpoint_name = "IC50"
reported_result = "< 100 nM"

[[record]]
compound = "O=C(NCCOc1nonc1C(=NO)Nc1ccc(F)c(Cl)c1)C1(O)CC1"
endpoint_name = "IC50"
reported_result = "100 to 1000 nM"

[[record]]
compound = "CN(CCOc1nonc1C(=NO)Nc1ccc(F)c(Cl)c1)C(=O)CS(N)(=O)=O"
endpoint_name = "IC50"
reported_result = "100 to 1000 nM"

[[record]]
compound = "CN1CCN(CCOc2nonc2C(=NO)Nc2ccc(F)c(Cl)c2)CC1"
endpoint_name = "IC50"
reported_result = "100 to 1000 nM"

[[record]]
compound = "NC(=O)c1ccc(C(=O)NCCSc2nonc2C(=NO)Nc2ccc(F)c(Cl)c2)cc1"
endpoint_name = "IC50"
reported_result = "< 100 nM"

[[record]]
compound = "Nc1c(NCCOc2nonc2C(=NO)Nc2ccc(F)c(C(F)F)c2)c(=O)c1=O"
endpoint_name = "IC50"
reported_result = "< 100 nM"

[[record]]
compound = "NS(=O)(=O)CC(=O)NCCOc1nonc1C(=NO)Nc1ccc(F)c(Cl)c1"
endpoint_name = "IC50"
reported_result = "100 to 1000 nM"


* * *

Property: IC50; scope: individual compounds
- TESTED SYSTEM: Indoleamine 2,3-dioxygenase (Homo sapiens, UniProt P14902)
- Construct: endogenous in cells
- ASSAY: SKOV-3 cellular Indoleamine 2,3-dioxygenase assay
- CONDITION SET: SKOV-3 cells, 50 ng/ml Interferon gamma, 100 μM L-Tryptophan, 24 hours, N-Formylkynurenin fluorescence detection; read-out: cell based activity
ENDPOINT NAME: IC50

[[record]]
compound = "C[S+]([O-])c1nonc1C(=NO)Nc1ccc(F)c(Br)c1 (stereo not shown)"
endpoint_name = "IC50"
reported_result = "100 to 1000 nM"

[[record]]
compound = "NS(=O)(=O)CC(=O)NCCSc1nonc1C(=NO)Nc1cc(Br)c(F)cc1F"
endpoint_name = "IC50"
reported_result = "< 100 nM"

[[record]]
compound = "O=C(NCCOc1nonc1C(=NO)Nc1ccc(F)c(Cl)c1)C1COCCN1 (stereo not shown)"
endpoint_name = "IC50"
reported_result = "100 to 1000 nM"

[[record]]
compound = "NC(=O)CS(=O)(=O)NCCOc1nonc1C(=NO)Nc1ccc(F)c(C(F)(F)F)c1"
endpoint_name = "IC50"
reported_result = "< 100 nM"

[[record]]
compound = "CS(=N)(=O)NCCOc1nonc1C(=NO)Nc1ccc(F)c(Cl)c1 (stereo not shown)"
endpoint_name = "IC50"
reported_result = "100 to 1000 nM"

[[record]]
compound = "NC(=O)C1(C(=O)NCCSc2nonc2C(=NO)Nc2ccc(F)c(C(F)F)c2)CNC1"
endpoint_name = "IC50"
reported_result = "100 to 1000 nM"

[[record]]
compound = "COc1nonc1/C(=N/O)Nc1ccc(F)c(Br)c1"
endpoint_name = "IC50"
reported_result = "< 100 nM"

[[record]]
compound = "O=C(NCCOc1nonc1C(=NO)Nc1ccc(F)c(Cl)c1)c1nnn[nH]1"
endpoint_name = "IC50"
reported_result = "> 1000 nM"

[[record]]
compound = "CN(C)C(=O)C(=O)NCCOc1nonc1C(=NO)Nc1ccc(F)c(Cl)c1"
endpoint_name = "IC50"
reported_result = "100 to 1000 nM"

[[record]]
compound = "O=S(=O)(NCCOc1nonc1C(=NO)Nc1ccc(F)c(Cl)c1)C(F)F"
endpoint_name = "IC50"
reported_result = "< 100 nM"

[[record]]
compound = "Cn1nc(C(=O)NCCSc2nonc2C(=NO)Nc2ccc(F)c(Cl)c2)[nH]c1=O"
endpoint_name = "IC50"
reported_result = "< 100 nM"

[[record]]
compound = "NS(=O)(=O)NCCSc1nonc1C(=NO)Nc1ccnc(C(F)(F)F)c1"
endpoint_name = "IC50"
reported_result = "100 to 1000 nM"

[[record]]
compound = "CS(=O)(=O)NCCOc1nonc1C(=NO)Nc1ccc(F)c(Cl)c1"
endpoint_name = "IC50"
reported_result = "< 100 nM"

[[record]]
compound = "Nc1c(NCCCOc2nonc2C(=NO)Nc2ccc(F)c(Cl)c2)c(=O)c1=O"
endpoint_name = "IC50"
reported_result = "< 100 nM"

[[record]]
compound = "CNC(=O)C(=O)NCCOc1nonc1C(=NO)Nc1ccc(F)c(Cl)c1"
endpoint_name = "IC50"
reported_result = "100 to 1000 nM"

[[record]]
compound = "NC(=O)CC(=O)NCCSc1nonc1C(=NO)Nc1ccc(F)c(C(F)F)c1"
endpoint_name = "IC50"
reported_result = "< 100 nM"

[[record]]
compound = "CSc1nonc1/C(=N/O)Nc1ccc(F)c(Br)c1"
endpoint_name = "IC50"
reported_result = "< 100 nM"

[[record]]
compound = "N#CCC(=O)NCCSc1nonc1/C(=N/O)Nc1ccc(F)c(C(F)F)c1"
endpoint_name = "IC50"
reported_result = "< 100 nM"

[[record]]
compound = "O=C(NCCSc1nonc1C(=NO)Nc1ccc(F)c(Cl)c1)C1(O)CNC1"
endpoint_name = "IC50"
reported_result = "100 to 1000 nM"

